settings: in n-propanol, 323.15 K
quantity.measured: solubility (mole fraction)
A bare number is all that is needed in reply.

What measured solubility (mole fraction) goes with N#Cc1ccc(C(c2ccc(C#N)cc2)n2cncn2)cc1 ?
0.00245

* * *

settings: in acetonitrile, 303.15 K
quantity.measured: solubility (mole fraction)
Lab note: jot down the number only; don't add units.

Please look up its solubility (mole fraction): N#Cc1ccc(C(c2ccc(C#N)cc2)n2cncn2)cc1
0.0131

* * *

settings: in methanol, 313.15 K
quantity.measured: solubility (mole fraction)
Note: the reply should be a number with no unit written.

Give the measured solubility (mole fraction) of N#Cc1ccc(C(c2ccc(C#N)cc2)n2cncn2)cc1 .
0.00342

* * *

settings: in methanol, 308.15 K
quantity.measured: solubility (mole fraction)
The answer should be written as a number, with no unit following it.

Can you look up the measured solubility (mole fraction) of N#Cc1ccc(C(c2ccc(C#N)cc2)n2cncn2)cc1 for me?
0.00287

* * *

settings: in acetonitrile, 293.15 K
quantity.measured: solubility (mole fraction)
Write the number on its own, no unit after it.

Entry N#Cc1ccc(C(c2ccc(C#N)cc2)n2cncn2)cc1 has what solubility (mole fraction)?
0.00923

* * *

settings: in ethanol, 298.15 K
quantity.measured: solubility (mole fraction)

Which solubility (mole fraction) value is on record for N#Cc1ccc(C(c2ccc(C#N)cc2)n2cncn2)cc1 ?
0.000946

* * *

settings: in acetonitrile, 318.15 K
quantity.measured: solubility (mole fraction)
A bare number is all that is needed in reply.

Tell me the measured solubility (mole fraction) of N#Cc1ccc(C(c2ccc(C#N)cc2)n2cncn2)cc1 , please.
0.021

* * *

settings: in ethyl acetate, 318.15 K
quantity.measured: solubility (mole fraction)
Answer with the value's number alone.

Find the recorded solubility (mole fraction) belonging to N#Cc1ccc(C(c2ccc(C#N)cc2)n2cncn2)cc1 and report it.
0.0132

* * *

settings: in methanol, 318.15 K
quantity.measured: solubility (mole fraction)
Just the number, please, no unit attached.

Can you share its solubility (mole fraction)? I mean this compound: N#Cc1ccc(C(c2ccc(C#N)cc2)n2cncn2)cc1
0.00406

* * *

settings: in THF, 283.15 K
quantity.measured: solubility (mole fraction)

Entry under review: N#Cc1ccc(C(c2ccc(C#N)cc2)n2cncn2)cc1 . Reported solubility (mole fraction)?
0.0164

* * *

settings: in methyl acetate, 318.15 K
quantity.measured: solubility (mole fraction)
I only need the number, thanks.

Could you share which solubility (mole fraction) value was measured for N#Cc1ccc(C(c2ccc(C#N)cc2)n2cncn2)cc1 ?
0.0234

* * *

settings: in THF, 313.15 K
quantity.measured: solubility (mole fraction)

What value of solubility (mole fraction) has been recorded for this entry: N#Cc1ccc(C(c2ccc(C#N)cc2)n2cncn2)cc1
0.0309

* * *

settings: in n-propanol, 293.15 K
quantity.measured: solubility (mole fraction)
In your answer, state the number alone without any accompanying words.

Would you mind telling me what solubility (mole fraction) value was observed for N#Cc1ccc(C(c2ccc(C#N)cc2)n2cncn2)cc1 ?
0.0006

* * *

settings: in ethanol, 283.15 K
quantity.measured: solubility (mole fraction)
// return just the number, without any unit appended

Could you share which solubility (mole fraction) value was measured for N#Cc1ccc(C(c2ccc(C#N)cc2)n2cncn2)cc1 ?
0.000456

* * *

settings: in acetone, 318.15 K
quantity.measured: solubility (mole fraction)
When you answer, write just the number.

# lookup: solubility (mole fraction) of N#Cc1ccc(C(c2ccc(C#N)cc2)n2cncn2)cc1
0.0335
